From: patent US11377442B2

target: NR2F6 LBD (Homo sapiens, UniProt P10588); construct: expressed in transfected cells; test: NR2F6 LBD transient transfection; assay type: cell-based; settings: 10 uM; LBD
Lab note: cut-off is 4. Strictly less in Firefly LBD, cmpd/DMSO (mean) is Y. Exactly 4 or more is N.

Completed entries (count: 10):
[[record]]
compound = "CC(=O)Nc1ccc(S(=O)(=O)[C@H]2CS(=O)(=O)C[C@@H]2NC2CC2)cc1 [Compound D133]"
class_name = "Y"

[[record]]
compound = "CCCCN(C)[C@H]1CS(=O)(=O)C[C@@H]1S(=O)(=O)c1ccc(Cl)cc1 [Compound D132]"
class_name = "N"

[[record]]
compound = "O=S1(=O)C[C@H](NCCc2cccs2)[C@@H](S(=O)(=O)c2ccc(Cl)cc2)C1 [Compound D128]"
class_name = "Y"

[[record]]
compound = "O=S1(=O)C[C@H](NC2CCCC2)[C@@H](S(=O)(=O)c2ccc(F)cc2)C1 [Compound D114]"
class_name = "Y"

[[record]]
compound = "CCCN[C@H]1CS(=O)(=O)C[C@@H]1S(=O)(=O)c1ccc(Cl)cc1 [Compound D117]"
class_name = "N"

[[record]]
compound = "COCCCN[C@H]1CS(=O)(=O)C[C@@H]1S(=O)(=O)c1ccc(Cl)cc1 [Compound D126]"
class_name = "Y"

[[record]]
compound = "COc1ccc(CCN[C@H]2CS(=O)(=O)C[C@@H]2S(=O)(=O)c2ccc(Cl)cc2)cc1OC [Compound D129]"
class_name = "Y"

[[record]]
compound = "Cc1cc(S(=O)(=O)[C@H]2CS(=O)(=O)C[C@@H]2NCC2CCCO2)ccc1F (stereo partly drawn) [Compound D115]"
class_name = "Y"

[[record]]
compound = "CC(=O)N1CCN([C@H]2CS(=O)(=O)C[C@@H]2S(=O)(=O)c2ccc(F)c(C)c2)CC1 [Compound D116]"
class_name = "Y"

[[record]]
compound = "O=S1(=O)C[C@H](NC2CCCCC2)[C@@H](S(=O)(=O)c2ccc(Cl)cc2)C1 [Compound D124]"
class_name = "Y"


// next entry
Ask: Quick check: does CC(C)CCN[C@H]1CS(=O)(=O)C[C@@H]1S(=O)(=O)c1cccs1 [Compound D110] have Firefly LBD, cmpd/DMSO (mean) under 4?
Reply: Y

---

Property: Firefly LBD, cmpd/DMSO (mean); scope: individual compounds
Target: NR2F6 LBD (Homo sapiens, UniProt P10588)
Construct: expressed in transfected cells
Sequence (P10588 165-393 limits assumed): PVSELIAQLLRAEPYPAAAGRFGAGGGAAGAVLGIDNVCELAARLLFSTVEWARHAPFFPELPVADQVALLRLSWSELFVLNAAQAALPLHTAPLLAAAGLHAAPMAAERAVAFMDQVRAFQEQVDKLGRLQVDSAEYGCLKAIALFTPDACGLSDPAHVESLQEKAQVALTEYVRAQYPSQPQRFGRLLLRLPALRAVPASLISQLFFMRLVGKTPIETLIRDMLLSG
Assay: NR2F6 LBD transient transfection
Assay type: cell-based
Settings: 10 uM; LBD
// print number alone

These solved cases illustrate the format of a correct answer.
[[record]]
chem_smiles = "C[C@@H]1C[C@H](C)CN([C@H]2CS(=O)(=O)C[C@@H]2S(=O)(=O)c2ccccc2)C1"
readout_number = 1.8

[[record]]
chem_smiles = "O=S1(=O)C[C@H](NC2CCCCCC2)[C@@H](S(=O)(=O)c2ccc(Cl)cc2)C1"
readout_number = 3.1

[[record]]
chem_smiles = "COCCN[C@H]1CS(=O)(=O)C[C@@H]1S(=O)(=O)c1cccs1"
readout_number = 2.2

[[record]]
chem_smiles = "O=S1(=O)C[C@H](NC2CCCCC2)[C@@H](S(=O)(=O)c2ccccc2)C1"
readout_number = 1.6

[[record]]
chem_smiles = "O=S1(=O)C[C@H](NCc2ccncc2)[C@@H](S(=O)(=O)c2cccs2)C1"
readout_number = 1.3

[[record]]
chem_smiles = "CC(C)CN[C@H]1CS(=O)(=O)C[C@@H]1S(=O)(=O)c1ccc(Cl)cc1"
readout_number = 4.1

[[record]]
chem_smiles = "O=S1(=O)C[C@H](N2CCCCC2)[C@@H](S(=O)(=O)c2ccc(Cl)cc2)C1"
readout_number = 4.9


Here is another compound to look at.
Ask: Please give the measured Firefly LBD, cmpd/DMSO (mean) for this compound: `CCCCN[C@H]1CS(=O)(=O)C[C@@H]1S(=O)(=O)c1ccc(Cl)cc1`
Reply: 3.4

---

compounds and their reported fold induction at 2 µM
tested on: Renilla_ERa; experiment: Renilla signal in ERα counterscreen (Renilla_ERa); assay type: cell-based; conditions: 2 uM; read-out: Renilla ERalpha transient, cmpd/DMSO (mean)

Previously resolved entries follow.
[[record]]
compound = "COc1ccc(-c2cc3n(n2)C(N)=C(C#N)C(c2ccc(N4CCOCC4)cc2)(C(F)(F)F)N3)cc1OC (centres unmarked) [Compound Z45]"
result = 1.1

[[record]]
compound = "CCOC(=O)c1cnc2cc(C)c(C)cc2c1NCCCN(C)C [Compound Z34]"
result = 1.5

[[record]]
compound = "CNc1c(C#N)c(C(F)(F)F)nc2ccc(Oc3ccccc3)cc12 [Compound Z53]"
result = 1

[[record]]
compound = "COc1ccc(-c2cc3n(n2)C(N)=C(C#N)C(c2c[nH]c4ccccc24)(C(F)(F)F)N3)cc1OC (centres unmarked) [Compound Z44]"
result = 1.1

[[record]]
compound = "N#Cc1c(C(F)(F)F)nc2ccc(Cl)cc2c1N1CCOCC1 [Compound Z43]"
result = 1

[[record]]
compound = "CCOC(=O)c1cnc2ccc(C)cc2c1NCCCN(C)C [Compound Z33]"
result = 1

[[record]]
compound = "O=c1cccc2n1CC1CC2CN(c2nc(Cl)nc(NCCN3CCOCC3)n2)C1 (centres unmarked) [Compound 27]"
result = 1.1


Here is another compound to look at.
Ask: // lookup fold induction at 2 µM for O=c1cccc2n1CC1CC2CN(c2nc(N3CCCC3)nc(N3CCCC3)n2)C1 (centres unmarked) [Compound 26]
Reply: 0.9

---

system: HEK293 pGL4; experiment: Firefly_pGL signal, cmpd/DMSO (pGL4 control cells); format: cell-based; conditions: Homo sapiens, HEK293, Table 14; 2 uM; read-out: Firefly pGL4, cmpd/DMSO (mean)
Listed here are compounds together with their documented fold induction at 2 µM.
When you answer, write just the number.

[[record]]
chem_smiles = "Cc1cc(C)n2nc(CNS(=O)(=O)c3ccc(Cl)cc3)nc2n1"
readout_number = 1

[[record]]
chem_smiles = "CCn1cc2c(n1)c(=O)n(Cc1ccccc1)c(=O)n2CC(=O)Nc1ccc(Br)cc1"
readout_number = 0.8

[[record]]
chem_smiles = "COc1ccc(-c2cn3cccc(C)c3n2)cc1"
readout_number = 1.9

[[record]]
chem_smiles = "CCOC(=O)c1cnc2c(C)cccc2c1NCCCN(C)C"
readout_number = 0.7


Turning now to a further compound:
Ask: // lookup fold induction at 2 µM for `CCOC(=O)c1cnc2c(C)cc(C)cc2c1NCCCN(C)C`
Reply: 1.1

---

assay: PK in mice plasma; format: in vivo; settings: mouse; Table 41; IV plasma, 1.12 mg/kg
endpoint.name: C0 (ng/mL)
All answers are understood in ng/mL, so give the number only.

Ask: I am curious: what C0 value has been reported for `COCCN[C@H]1CS(=O)(=O)C[C@@H]1S(=O)(=O)c1ccc(Cl)cc1` ?
Reply: 770

---

Recorded Firefly, cmpd/DMSO repeat 1 by entry
target: NR2F6 (Homo sapiens); construct: expressed in transfected cells; also transient transfection; assay: NR2F6 agonist screening, Firefly signal cmpd/DMSO; format: cell-based; conditions: Table 9; repeat 1

Examples with answers:
[[record]]
chem_smiles = "CCOc1cccc2cc(S(=O)(=O)c3ccc(F)cc3)c(=O)oc12"
result = 3.5

[[record]]
chem_smiles = "COc1cccc2cc(S(=O)(=O)c3ccc(C(C)(C)C)cc3)c(=O)oc12"
result = 2.2

[[record]]
chem_smiles = "COc1cccc2cc(S(=O)(=O)c3ccc(C)c(Cl)c3)c(=O)oc12"
result = 1.0


Ask: What value of measured Firefly, cmpd/DMSO repeat 1 is listed for `CCOc1cccc2cc(S(=O)(=O)c3ccc(Cl)cc3)c(=O)oc12` ?
Reply: 9.7

---

assay: PK in mice plasma; format: in vivo; conditions: Table 41; IV plasma, 1.12 mg/kg
endpoint.name: K el
Write the numeric value and follow it with the unit.

Ask: For COCCN[C@H]1CS(=O)(=O)C[C@@H]1S(=O)(=O)c1ccc(Cl)cc1 [Compound D136] , what is its reported K el?
Reply: 1.16 h⁻¹

---

molecular target: ERα (Homo sapiens); construct: expressed in transfected cells; assay: Counterscreening, Firefly signal with ERα transient transfection (Firefly_ERa); format: cell-based; conditions: Table 15; 40 uM
Sequence (P03372 whole entry, species assumed): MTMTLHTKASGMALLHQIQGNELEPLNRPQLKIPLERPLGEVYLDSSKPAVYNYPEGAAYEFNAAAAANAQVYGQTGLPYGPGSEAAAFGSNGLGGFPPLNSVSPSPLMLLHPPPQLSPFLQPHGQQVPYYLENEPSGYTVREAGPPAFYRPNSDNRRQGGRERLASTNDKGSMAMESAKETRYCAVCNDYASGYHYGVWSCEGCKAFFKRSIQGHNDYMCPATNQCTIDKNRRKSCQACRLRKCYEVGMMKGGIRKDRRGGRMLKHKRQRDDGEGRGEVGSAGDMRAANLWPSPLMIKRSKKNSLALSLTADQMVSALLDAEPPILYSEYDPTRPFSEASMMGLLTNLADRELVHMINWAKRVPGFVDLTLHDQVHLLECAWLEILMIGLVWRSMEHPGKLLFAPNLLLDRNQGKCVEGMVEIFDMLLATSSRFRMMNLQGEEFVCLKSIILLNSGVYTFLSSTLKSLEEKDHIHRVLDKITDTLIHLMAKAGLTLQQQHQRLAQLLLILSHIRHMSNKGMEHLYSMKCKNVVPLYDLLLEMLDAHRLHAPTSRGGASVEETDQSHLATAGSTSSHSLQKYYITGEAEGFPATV
Firefly ERalpha transient, cmpd/DMSO (mean) by entry:
Lab note: write the figure by itself, no unit.

Below are worked cases with known answers.
[[record]]
compound = "CCOC(=O)c1cnc2c(C)cc(C)cc2c1NCCCN1CCCCC1 [Compound Z11]"
readout_number = 0.6

[[record]]
compound = "CCOC(=O)c1cnc2c(C)cc(C)cc2c1NCCCN1CCCCC1 [Compound Z8]"
readout_number = 0.4

[[record]]
compound = "Cc1ccc(NC(=O)c2n[nH]c3c2CCCCC3)cc1C"
readout_number = 0.7

[[record]]
compound = "CS(=O)(=O)Nc1ccc([N+](=O)[O-])c2nonc12"
readout_number = 1.1


Ask: So what does the record say about Firefly ERalpha transient, cmpd/DMSO (mean) for `COc1ccc(-c2noc(Cn3ncc4ccccc4c3=O)n2)cc1` ?
Reply: 1.5
